- System: MS2 coat protein
- ASSAY_REMARKS: apparent KD of MS2 coat protein; designed switch direction (-1 OFF switch, 1 ON switch): -1; higher = weaker reporter binding
- CONDITIONS_USED: input ligand: FMN 200 uM

| SEQUENCE_CHAIN | apparent KD of MS2 coat protein, µM |
| --- | --- |
| CGUUCGCGAGGAUAUGCAUUCGAGUCCACUACGUGUCUGGGACUUGAGGAUCACCCAAGUAGAAGGCGCCUCCA [salish99_ex2_r4_650] (Eterna round: R97, puzzle: Exclusion 2) | 0.0785 |
| CUCUCUCGAGGAUAUACCGUAUGGUGGAAUCUCCUCGGAAGACAUGAGGAUCACCCAUGUAGAAGGCGAGAUGG [Eternabot (L2) Solution 64] (Eterna round: R97, puzzle: Exclusion 2) | 0.144 |
| GCGCACCUACCAAAAGGUAGGCCAACAUGAGGAUCACCCAUGUAGGAUAUCGAUUGCUUUGCAGUCGAGAAGGACAUGAUGCGC [JL ENG3 3.80 Mod 8] (Eterna round: R96, puzzle: Exclusion NG 3) | 0.0338 |
| GUCUACGCAGGAUAUAUCCCUCAGGACAUGAGGAUCACCCAUGUCUCCUUAUGCCUUCCCAUAGAAGGGCGUAGAA [Eternabot (L1) Solution 82] (Eterna round: R97, puzzle: Exclusion 5) | 0.0126 |
| CUAAAUCAUGUAGGAUAUGCGUGGCAAAGCUAUGCAGAAGGACAUGAGGAUCACCCAUGUGCUUCCGUCUGCGUACAGACGGUA [Mat - Exclusion NG 1 - Mod of JL - D21] (Eterna round: R96, puzzle: Exclusion NG 1) | 0.551 |
| GAAAAGGUAGAGGAUAUUUCAGAUCAAAGCUGCAAAGAAGGCUGCACAUGAGGAUCACCCAUGUGGUCAACAAA [Mod of Quesina 13 - Jieux - Exclusion 6] (Eterna round: R97, puzzle: Exclusion 6) | 0.0661 |
| GGGCCCGGUGUGAGGAUAUGCUCGGGUAAAUCUGGGUAGAAGGCACAUGAGGAUCACCCAUGUAAGCCGGGCCC [-34.4, -32.3 kcal, A 23%, 7bis-0] (Eterna round: R97, puzzle: Brourd's mod of Exclusion 4) | 0.0152 |
| AUCGUGCAGCAAAGCUGUACGAGUACAUGAGGAUCACCCAUGUAGGAUAUGGUACGCAAAGCGUGCUAGAAGGAUAUGAGAUUU [Mat - Exclusion NG 3 - Mod of JL - D100] (Eterna round: R96, puzzle: Exclusion NG 3) | 0.0554 |

----------
- System: MS2 coat protein
- ASSAY_REMARKS: apparent KD of MS2 coat protein; designed switch direction (-1 OFF switch, 1 ON switch): -1; higher = weaker reporter binding
- CONDITIONS_USED: input ligand: microRNA oligo, concentration not stated
apparent KD of MS2 coat protein for assorted sequences
READOUT_NAME: apparent KD of MS2 coat protein (nM)

| SEQUENCE_CHAIN | UNITS_LABEL | EXPERIMENTAL_RESULT |
| --- | --- | --- |
| UUAAUUACGGUGCUUUAACCUCACAUGAGGAUCACCCAUGUGCAGGAUAUCAGCUCGUGUAGAGCUGAGAAGGGCACUGCACCG [ExNG3/11-A3] (Eterna round: R96, puzzle: Exclusion NG 3) | nM | 8.05 |
| AACGUGUAAGGAUAUGCUGCUCGUCACGAAAGUGAUGAGUAGCAGAAGGUACAUGAGGAUCACCCAUGUAAAGA [Exclusion 4.1f (Exclusion4-cac2 - changed GC at 6/50 to AU )] (Eterna round: R96, puzzle: Exclusion 4) | nM | 19 |
| ACGAAACAUGAGGAUCACCCAUGUGAGGAUAUGUAAAUAGUAAACAAAUAAGAAAUAAACAGAAGGCACACAGG [JR_Exclusion1_Sub004] (Eterna round: R96, puzzle: Exclusion 1) | nM | 24.3 |
| AGGUGCUUCUGGAAACAUGAGGAUCACCCAUGUUGAGUUAGCGAGGAUAUCGGUAACAAUUGUUAUGAGAAGGCGCAAACCAGA [Ex NG3 #36] (Eterna round: R96, puzzle: Exclusion NG 3) | nM | 12.5 |
| ACAUGAGGAUCACCCAUGUGAAAACAAUGGCUGACUUUGAGAUAGGAUAUAGGUGCAUAUCAAACCUAGAAGGGUCAUUACUGG [Deportation 91 - Jieux - Exclusion NG 3] (Eterna round: R96, puzzle: Exclusion NG 3) | nM | 35.3 |
| AAGAUGCGGAUAGGAUAUGGAAAAAAAAAAAAAUUAGAAGGGUUGGUUAAAAUACAUGAGGAUCACCCAUGUGAAUCAUGAGAA [AK ExNG1-2.1] (Eterna round: R96, puzzle: Exclusion NG 1) | nM | 127 |
| GUUGUUUAUGUAGGAUAUGCAAGGCGAGCCUAAGCAGAAGGACAUGAGGAUCACCCAUGUAUUGCGGUCUGCGUUCAGAUCGCU [salish99_ExNG1_r4_015] (Eterna round: R96, puzzle: Exclusion NG 1) | nM | 17.3 |
| GCACGAAGUGUAGGAUAUCUGUGCGAUUAGCUCAGAGAAGGACACAUGAGGAUCACCCAUGUUUUCCGCGGAAGCAAUACGUGC [Eli exng1 - 058] (Eterna round: R96, puzzle: Exclusion NG 1) | nM | 13.2 |

----------
- Tested on: MS2 coat protein
- ASSAY_REMARKS: apparent KD of MS2 coat protein; designed switch direction (-1 OFF switch, 1 ON switch): 1; higher = weaker reporter binding
- CONDITIONS_USED: input ligand: none

| SEQUENCE_CHAIN | UNITS_LABEL | apparent KD of MS2 coat protein |
| --- | --- | --- |
| CGGUGAGAGACAGGAUAUCGAGCCUAACGAGGCCGAGAAGGGUCGCCCGAAGCGACCGACAUGAGGAUCACCCAUGUAGAAAGA [Eternabot solution 21] (Eterna round: R96, puzzle: Same State NG 1) | nM | 40.4 |
| UGACACACGGCAGGAUAUCGAUUCCAAAGGAAUCGAGAAGGGCCUCAUGUCGUGGAAACGUGACAUGAGGAUCACCCAUGUUGC [Omei SS(NG)1 Cv15] (Eterna round: R96, puzzle: Same State NG 1) | nM | 96 |
| CCCUCAUGCAGGCUAACACGCUUGUUUUAACAUGAGGAUCACCCAUGUACGUCGCCGUUUCGUGCGGGACGCGCAGA [Anuscear] (Eterna round: R96, puzzle: Sensor for hsa-mir-208a) | nM | 169 |
| GUAGCAUACCGAGGAUAUUCACAUGAGGAUCACCCAUGUAUUAAUAGGCCACAUUAGUGGCCUUGGGAGAAGGCGGAAUGCUAC [Xeonanis - 20 Mod48] (Eterna round: R96, puzzle: Same State NG 2) | nM | 14.6 |
| UUGAAGAAUUAAGGAUAUUGAAUACAUAUGUUUAACAUGAGGAUCACCCAUGUGGGUUGCGGUAUCGAGAAGGUAAAUUAAUAG [Mat - Same State NG 2 - JL mod - D9] (Eterna round: R96, puzzle: Same State NG 2) | nM | 118 |
| GCUGCAAGGGCAGGAUAUGGGUCCAGAGCGCAAGUGCGCCCUGGUACAUGAGGAUCACCCAUGUCCCAGAAGGGCCCAAGCAGC [Vetierribi] (Eterna round: R96, puzzle: Same State NG 2) | nM | 87.6 |
| GCUCGCACGAUGACCCACAUGAGGAUCACCCAUGUGCGUGGGCAGGAUAUCUAGAUUAAGGAUGUAGAGAAGGGUUGAGCGAGC [SameState NG3 #25] (Eterna round: R96, puzzle: Same State NG 3) | nM | 302 |
| UGAACCUUCACAGGAUAUCAUGCGAAAAUUGCGUGAGAAGGGUGAAUACGGUGUUCAUAGUUGCACAUGAGGAUCACCCAUGUA [SameState NG1 #54] (Eterna round: R96, puzzle: Same State NG 1) | nM | 316 |
| GAGGGACAGACCAACAUGAGGAUCACCCAUGUCCUCGCAGGUCAGGAUAUCCGGCCAACAGGCAAGGAGAAGGGACGGUGAACC (Eterna round: R96, puzzle: Same State NG 3) | nM | 479 |
| GAGUGGCAGUUAGGAUAUACAGUGAUAAUGAUAGUAGAAGGAACUGACAUGAGGAUCACCCAUGUAGGACUAAUCCAGAGAGAG [Parity 32 - Jieux - Same State NG 1] (Eterna round: R96, puzzle: Same State NG 1) | nM | 31.5 |
| GGAGCCAAGGCAGGAUAUUCAUAUUAAAUAACAUGAGGAUCACCCAUGUAGGCCAGAAGGCCUUGGGAGAAGGGCCAUGGCUCG [Xeonanis - 13 mod21] (Eterna round: R96, puzzle: Same State NG 2) | nM | 189 |
| AGCGUCCACACAGGAUAUCACCUGCACUGCAGGUGAGAAGGGUGACCGGUGCGCAAUAACGACAUGAGGAUCACCCAUGUAAAA [Vegea] (Eterna round: R96, puzzle: Same State NG 1) | nM | 143 |
| GAGAGACGAUUAGGAUAUCCGGUGAUAAUGAUAGGAGAAGGAAUUGACAUGAGGAUCACCCAUGUAGGAAUAAUCCAGAGAGAG [Parity 25 - Jieux - Same State NG 1] (Eterna round: R96, puzzle: Same State NG 1) | nM | 48.8 |
| AAAGAAAACGCAGGAUAUCCCGGAAUGGAAACGGGAGAAGGGUGACCGGUACAUGAGGAUCACCCAUGUAGAGCACAGGCUCAA [Sousdi] (Eterna round: R96, puzzle: Same State NG 1) | nM | 922 |
| UCGAGCGUACUUGCAGACAUGAGGAUCACCCAUGUAAAUGGGAAGGAUAUGGUACCGUUUCGGUACCAGAAGGUCCUGGGUGCU [salish99_SSNG3_r04_307] (Eterna round: R96, puzzle: Same State NG 3) | nM | 984 |
| GUAGCAGGCACAGGAUAUGUUGACCAGGGAGUACAUGAGGAUCACCCAUGUCCGACACACCGGCAAUAGAAGGGUGAGUGGCAG [Eternabot solution 17] (Eterna round: R96, puzzle: Same State NG 2) | nM | 78.1 |

Values compiled from the supplement of paper PMC9170038.
